# System: Fibroblast
# procedure text: Multiplex assay against human fibroblast
# Format: toxicity, cell-based
# condition description: 12 h, 10 µM, compound concentration 10 uM, replicate 2
readout kind: Population Pyknosed Nuclei (%)

query smiles	Population Pyknosed Nuclei (%)
O=C1NC(=O)C(c2cnc3ccccn23)=C1c1cn2c3c(cc(F)cc13)CN(C(=O)N1CCCCC1)CC2	16%
Cc1cn(-c2cc(NC(=O)c3ccc(C)c(Nc4nccc(-c5cccnc5)n4)c3)cc(C(F)(F)F)c2)cn1	9%
CCc1cccc(CC)c1NC(=O)c1nn(C)c2c1CCc1cnc(Nc3ccc(N4CCN(C)CC4)cc3OC)nc1-2	7%
COC(=N)c1nc2ccc3ncnc(Nc4ccc(OC)cc4F)c3c2s1	7%

Q: GET /values?readout=Population Pyknosed Nuclei (%)&item= `O=C(Nc1ccc(Cl)cc1)Nc1cccc(-c2cccc(N3CCCC3)n2)c1`
A: 17%
